# target_system: Thromboxansynthetase (Homo sapiens, UniProt P24557)
# Construct: Aliquots der erhaltenen Plättchensuspension werden mit der Testsubstanz bzw; Lösungsmittel als Kontrolle 10 Minuten bei Raumtemperatur inkubiert; endogenous in cells
# Sequence (P24557 whole entry): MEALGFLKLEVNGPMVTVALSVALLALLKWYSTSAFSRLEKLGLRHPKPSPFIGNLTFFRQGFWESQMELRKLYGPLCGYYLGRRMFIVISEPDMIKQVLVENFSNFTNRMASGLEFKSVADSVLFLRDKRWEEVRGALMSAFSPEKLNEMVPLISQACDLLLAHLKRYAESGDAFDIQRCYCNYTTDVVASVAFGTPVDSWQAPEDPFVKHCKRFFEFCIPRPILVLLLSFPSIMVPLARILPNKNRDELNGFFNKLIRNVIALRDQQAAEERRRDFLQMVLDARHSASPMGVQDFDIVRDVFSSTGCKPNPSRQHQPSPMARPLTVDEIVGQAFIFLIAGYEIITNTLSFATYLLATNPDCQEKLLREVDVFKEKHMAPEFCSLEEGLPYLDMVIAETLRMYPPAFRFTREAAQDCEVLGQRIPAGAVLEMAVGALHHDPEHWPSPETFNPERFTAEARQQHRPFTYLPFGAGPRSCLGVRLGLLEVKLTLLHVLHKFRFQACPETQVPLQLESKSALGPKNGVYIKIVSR
# protocol_details: Inhibition of thromboxane synthetase (TXB2 formation from 14C-arachidonic acid in platelet suspension)
# details: 10 min preincubation at room temperature, read-out: Hemmung der Thromboxansynthetase IC₅₀
measured_attribute: IC50 (nM)
Give your result in nM as a bare value.

These solved cases illustrate the format of a correct answer.
- compound: "CN(C(=S)Nc1ccc(Cl)cc1Cl)c1cccc(/C(=C\\CCCC(=O)O)c2cccnc2)c1"
  IC50 [nM]: 90
- compound: "O=C(O)CCCC=C(c1ccc(NC(=O)C2CC2c2ccc(Cl)cc2)cc1)c1cccnc1 (single isomer, unassigned; (-))"
  IC50 [nM]: 4
- compound: "O=C(O)CCC/C=C(/c1cccnc1)c1cccc(NC(=S)Nc2ccc(Cl)cc2)c1"
  IC50 [nM]: 32

Query: For the compound O=C(O)CCC/C=C(/c1cccnc1)c1cccc(NC(=O)CCc2ccc(Cl)cc2)c1 , give its reported IC50.
Response: 4

---

# target_system: Thromboxan (Homo sapiens, UniProt P21731)
# Construct: Aliquote der erhaltenen Plättchensuspension werden mit der Testsubstanz, dem Liganden (3H-markiert) und einem Marker (14C-markiert) 60 Minuten bei Raumtemperatur inkubiert; endogenous in cells; host or cells: gel-filtered human platelets from venous blood
# Sequence (P21731 whole entry): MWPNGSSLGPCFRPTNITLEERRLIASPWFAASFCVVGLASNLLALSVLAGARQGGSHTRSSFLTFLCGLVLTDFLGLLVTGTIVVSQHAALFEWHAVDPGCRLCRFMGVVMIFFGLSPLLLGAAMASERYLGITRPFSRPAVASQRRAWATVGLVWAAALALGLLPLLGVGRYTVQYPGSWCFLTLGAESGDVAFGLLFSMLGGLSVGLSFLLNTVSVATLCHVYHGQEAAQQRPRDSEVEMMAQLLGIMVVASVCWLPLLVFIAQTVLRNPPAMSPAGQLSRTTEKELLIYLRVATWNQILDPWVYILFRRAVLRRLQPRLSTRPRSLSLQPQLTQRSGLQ
# protocol_details: Thromboxane-antagonistic effect (displacement of 3H-labelled ligand from platelet suspension)
# Format: binding
# details: 60 min at room temperature, read-out: Thromboxanantagonistische Wirkung IC₅₀
# maps each entry to its IC50
The reply should contain only the number, in nM.

Query: Name the recorded IC50 of the compound listed here: O=C(O)CCC/C=C(/c1cccnc1)c1cccc(NC(=O)CCc2ccc(Cl)cc2)c1
Response: 8

Query: Using known records, supply IC50 for O=C(O)CCCC=C(c1ccc(NC(=O)C2CC2c2ccc(Cl)cc2)cc1)c1cccnc1 (single isomer, unassigned; (-))
Response: 4

Query: Please give the documented IC50 of CN(C(=S)Nc1ccc(Cl)cc1Cl)c1cccc(/C(=C\CCCC(=O)O)c2cccnc2)c1
Response: 17

Query: Return reported IC50. Input compound: O=C(O)CCC/C=C(/c1cccnc1)c1cccc(NC(=S)Nc2ccc(Cl)cc2)c1
Response: 12
